System: corn earworm (Helicoverpa zea)
Test protocol: Insecticidal test on treated lepidopteran diet, corn earworm
Assay type: in vivo
Study conditions: 120 h; second-instar larvae on treated diet, 8 wells; dose of 50 mg/cm^2 [sic] (2000 ppm, 50 μL); dead insects counted 5 days after treatment; read-out: AVG HELIZE 50 (percent control, corn ear worm)
Protocol: The compounds identified in Table 1 were prepared according to the previous methods and were tested against beet armyworm and corn earworm as follows: Insecticidal Test for Corn Earworm (Helicoverpa zea) and Beet Armyworm (Spodoptera exigua). To prepare test solution, the test compound was formulated at 2000 ppm solution as 4 mg/2 mL of 9 acetone:1 tap water. […]
Give pest or weed control at 2000 µg/mL for every item shown.
Numbers only, in %.

Here are 3 compounds together with their reported answers.
Compound: FC(F)(F)COc1nc(N/N=C/c2cccc(Cl)c2)nc(Nc2ccc(OC(F)(F)F)cc2)n1 [Compound 27]
Unit annotation: %
Reported value: 100
//
Compound: FC(F)(F)Oc1ccc(/C=N/Nc2ncnc(Nc3cccc(C(F)(F)F)c3)n2)cc1 [Compound 101]
Unit annotation: %
Reported value: 100
//
Compound: N#Cc1ccc(/C=N/Nc2nc(NCc3ccc(Cl)nc3)nc(Nc3ccc(OC(F)(F)C(F)F)cc3)n2)cc1 [Compound 96]
Unit annotation: %
Reported value: 100

Below is a list of compounds. For each, state its recorded pest or weed control at 2000 µg/mL.
1. COCCN(C)c1nc(N/N=C/c2ccc(OC(F)(F)F)cc2)nc(Nc2ccc(OC(F)(F)F)cc2)n1 [Compound 22]
2. Fc1cc(C(F)(F)F)ccc1Nc1nc(N/N=C/c2cccc(OC(F)(F)C(F)F)c2)nc(N2CCOCC2)n1 [Compound 81]
3. CCOc1nc(N/N=C/c2ccc(OC)cc2)nc(Nc2cccc(C(F)(F)F)c2)n1 [Compound 14]
4. COc1ccc(CNc2nc(N/N=C/c3ccc(OC(F)(F)F)cc3)nc(Nc3ccc(F)c(C(F)(F)F)c3)n2)cn1 [Compound 82]
5. FC(F)(F)COc1nc(N/N=C/c2c(Cl)cccc2Cl)nc(Nc2ccc(OC(F)(F)F)cc2)n1 [Compound 35]
6. FC(F)C(F)(F)Oc1cccc(Nc2nc(NCc3ccc(Cl)nc3)nc(N/N=C/c3ccc(C(F)(F)F)cc3)n2)c1 [Compound 85]
7. Fc1ccc(Nc2nc(N/N=C/c3ccc(OC(F)(F)C(F)F)cc3)nc(N3CCOCC3)n2)cc1C(F)(F)F [Compound 52]
8. Fc1ccc(Nc2nc(NCc3ccc(C(F)(F)F)nc3)nc(N/N=C/c3ccc(OC(F)(F)F)cc3)n2)cc1C(F)(F)F [Compound 77]

[13, 100, 13, 100, 100, 100, 100, 100]

Hey, can you go through the list below and give me pest or weed control at 2000 µg/mL for every item?
1. FC(F)C(F)(F)Oc1ccc(/C=N/Nc2nc(Nc3ccc(OC(F)(F)F)cc3)nc(N3CCOCC3)n2)cc1 [Compound 1]
2. Fc1ccc(Nc2nc(NCc3ccc(Cl)nc3)nc(N/N=C/c3cc(Cl)cc(Cl)c3)n2)cc1C(F)(F)F [Compound 67]
3. FC(F)C(F)(F)Oc1cccc(Nc2nc(N/N=C/c3ccc(C(F)(F)F)cc3)nc(N3CCOCC3)n2)c1 [Compound 84]
4. Fc1ccc(Nc2nc(NCc3ccc(Cl)nc3)nc(N/N=C/c3cccc(Br)c3)n2)cc1C(F)(F)F [Compound 70]

1: 100; 2: 100; 3: 75; 4: 100
